- System: cyclic ECL2 peptide of NTSR1
- Sequence (P30989 206-234 limits assumed): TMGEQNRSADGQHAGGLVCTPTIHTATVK
- experiment notes: NTSR1-binding affinity ELISA (alanine scanning variants)
- Design: species or system human
- recorded conditions: alanine scanning of CDR L3 of h7C3-1
measurement type: effect on h7C3-1 affinity for peptide (in words)

{"columns": ["molecule", "result value"],
 "data": [
  ["H98A: h7C3-1 variant, H98A in CDR L3 (antibody, V domains shown) VH: QVQLQQPGSVLVRPGASVKLSCKASGYTFTSSWIHWAKQRPGQGLEWIGQIRPNSGNTYYNEKFKVKATLTVDTSSSTAYVDLSSLTSEDSAVYYCARYHYGFDYWGQGTLVTVSS VL: DVLMTQTPLSLPVSLGDQASISCRSSQSIVHSNGNTYLEWYLQKPGQSPKLLIYKVSNRFSGVPDRFSGSGSGTDFTLKISRVEAEDLGVYYCFQGSALPWTFGGGTKLEIKR", "no effect"],
  ["G96A: h7C3-1 variant, G96A in CDR L3 (antibody, V domains shown) VH: QVQLQQPGSVLVRPGASVKLSCKASGYTFTSSWIHWAKQRPGQGLEWIGQIRPNSGNTYYNEKFKVKATLTVDTSSSTAYVDLSSLTSEDSAVYYCARYHYGFDYWGQGTLVTVSS VL: DVLMTQTPLSLPVSLGDQASISCRSSQSIVHSNGNTYLEWYLQKPGQSPKLLIYKVSNRFSGVPDRFSGSGSGTDFTLKISRVEAEDLGVYYCFQASHLPWTFGGGTKLEIKR", "no effect"],
  ["h7C3-2: 7C3 variant harboring Y100H mutation in CDR H3 and S97A mutation in CDR L3 (antibody, V domains shown) VH: QVQLQQPGSVLVRPGASVKLSCKASGYTFTSSWIHWAKQRPGQGLEWIGQIRPNSGNTYYNEKFKVKATLTVDTSSSTAYVDLSSLTSEDSAVYYCARYHYGFDYWGQGTLVTVSS VL: DVLMTQTPLSLPVSLGDQASISCRSSQSIVHSNGNTYLEWYLQKPGQSPKLLIYKVSNRFSGVPDRFSGSGSGTDFTLKISRVEAEDLGVYYCFQGAHLPWTFGGGTKLEIKR", "no effect"],
  ["P100A: h7C3-1 variant, P100A in CDR L3 (antibody, V domains shown) VH: QVQLQQPGSVLVRPGASVKLSCKASGYTFTSSWIHWAKQRPGQGLEWIGQIRPNSGNTYYNEKFKVKATLTVDTSSSTAYVDLSSLTSEDSAVYYCARYHYGFDYWGQGTLVTVSS VL: DVLMTQTPLSLPVSLGDQASISCRSSQSIVHSNGNTYLEWYLQKPGQSPKLLIYKVSNRFSGVPDRFSGSGSGTDFTLKISRVEAEDLGVYYCFQGSHLAWTFGGGTKLEIKR", "no effect"]
]}
